Tested on: PCA reaction
measurement notes: PCA test (48-hour passive cutaneous anaphylaxis), oral administration
Type: in vivo
details: Rattus norvegicus, 10 mg/kg orally, 30 minutes before antigen challenge, male Sprague-Dawley rats
Method: Each of Sprague-Dawley female rats weighing 170 to 250 g (CRJ-CD(SD), Charles River Japan Inc.) was intramuscularly administered with 5 mg/kg-body weight of egg albumin dissolved in saline, and then 1 ml of a suspension of Bordetella pertussis vaccine (2×10^10 organism) in saline was administered intraperitoneally to the rat. On day 10, 3,000 larvae animal of Nippostrongylus brasiliensis were subcutaneously administered to the rats. On day 24, blood was drawn from the rats to obtain an antiserum. […]
Entries and their inhibition at 10 mg/kg values follow.
parameter: inhibition at 10 mg/kg (%)

[[record]]
query_smiles = "O=c1c2[nH]nnc2nc2sc(CC3CCCCC3)nn12"
parameter = "inhibition at 10 mg/kg"
data_value = 77

[[record]]
query_smiles = "O=c1c2[nH]nnc2nc2sc(CCC3CCCC3)nn12"
parameter = "inhibition at 10 mg/kg"
data_value = 62

[[record]]
query_smiles = "O=c1c2[nH]nnc2nc2sc(CCCC3CCCC3)nn12"
parameter = "inhibition at 10 mg/kg"
data_value = 91

[[record]]
query_smiles = "O=c1c2[nH]nnc2nc2sc(CCC3CCCCCC3)nn12"
parameter = "inhibition at 10 mg/kg"
data_value = 88

[[record]]
query_smiles = "O=c1c2[nH]nnc2nc2sc(CCC3CCCCC3)nn12"
parameter = "inhibition at 10 mg/kg"
data_value = 81


====

measurement notes: Acute toxicity test
details: mouse, in vivo, po; p.o. in mice
parameter: LD50

[[record]]
query_smiles = "O=c1c2[nH]nnc2nc2sc(CCC3CCCCC3)nn12"
parameter = "LD50"
data_value = "> 4000 mg/kg"

[[record]]
query_smiles = "O=c1c2[nH]nnc2nc2sc(CCC3CCCCCC3)nn12"
parameter = "LD50"
data_value = "> 4000 mg/kg"

[[record]]
query_smiles = "O=c1c2[nH]nnc2nc2sc(CCCC3CCCCC3)nn12"
parameter = "LD50"
data_value = "> 4000 mg/kg"

[[record]]
query_smiles = "O=c1c2[nH]nnc2nc2sc(CCC3CCCC3)nn12"
parameter = "LD50"
data_value = "2000 to 4000 mg/kg"

[[record]]
query_smiles = "O=c1c2[nH]nnc2nc2sc(CCCC3CCCC3)nn12"
parameter = "LD50"
data_value = "> 4000 mg/kg"

